B1: HDV Ribozyme (parent)
chain: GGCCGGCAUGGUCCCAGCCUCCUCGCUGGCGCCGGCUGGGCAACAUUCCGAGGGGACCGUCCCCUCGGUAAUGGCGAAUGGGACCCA

Variants of: B1
assay.summary: self-cleavage, relative activity (ratio to wild type); higher = more cleavage; co-transcriptional
observation.type: self-cleavage

sequence.input	observation.type	endpoint.result
GGCCGGCAUGGUCCCAGCCUCCUCGCUGGCGCCGGCUGGGCAACAUUCCAAGGGGACCGUCCCCUCGGUAACGGCGAAUGGGACCCA [G50A U72C]	self-cleavage	0.45
GGCCGGCAUGGUUCCAGCCUCCUCGCUGGCGCCGGCUGGGCAACAUUCUGAGGGGACCGUCCCCUCGGUAAUGGCGAAUGGGACCCA [C13U C49U]	self-cleavage	0.256
GGCCGGCAUGGUCCCAGCCUCCUCGCUGGCGCCGGCUGGGCAACAUUCCGAGGGGACCGUCCCCUCGUUAUUGGCGAAUGGGACCCA [G68U A71U]	self-cleavage	1.01
GGCCGGCAUGGUCCCAGCCUCCUCGCUGGCGCCGGCUGUGCAACAUUCCGAGGGGACCGUACCCUCGGUAAUGGCGAAUGGGACCCA [G39U C61A]	self-cleavage	0.589
GGCCGGCAUGGUCCCAGCCUCCUCGCUGGCGCCGGCUGGGCACCAUUCCGAGGGGACUGUCCCCUCGGUAAUGGCGAAUGGGACCCA [A43C C58U]	self-cleavage	0.671
GGCCGGCAUGGUCCCAGCCUCCUCGCUGGCGCCGGCUGGGCAACAUUCCGAGUGGACCGUCCCCUCGGUAAUCGCGAAUGGGACCCA [G53U G73C]	self-cleavage	0.428
GGCCGGCAUGGUCCCAGCCUCCUCGCUGGCGCCGGCUGGGCUACAUUCCGAGGGGACCGUGCCCUCGGUAAUGGCGAAUGGGACCCA [A42U C61G]	self-cleavage	0.77
UGCCGGCAUGGUCCCAGCCUCCUCGCUGGCGCCGGCUGGGCAACAUUCCGAGGGGACCGUCACCUCGGUAAUGGCGAAUGGGACCCA [G1U C62A]	self-cleavage	0.248
GGCCGGCAUGGUCCCAGCCUCCUCGCUGGCGCCGGCUGGCCAACAUUCCAAGGGGACCGUCCCCUCGGUAAUGGCGAAUGGGACCCA [G40C G50A]	self-cleavage	0.219
GGCCGGCUUGGUCCGAGCCUCCUCGCUGGCGCCGGCUGGGCAACAUUCCGAGGGGACCGUCCCCUCGGUAAUGGCGAAUGGGACCCA [A8U C15G]	self-cleavage	0.277
GGCCGGCAUGGUCCCAGCCUCCUCGCUGGCGCCGGCUGGGCAACAUUCCGAGGGCACCGUCACCUCGGUAAUGGCGAAUGGGACCCA [G55C C62A]	self-cleavage	1.04
GGCCGGCAUGGUCCCAGCCUCCUCGCUGGGGCCGGCUGGGCUACAUUCCGAGGGGACCGUCCCCUCGGUAAUGGCGAAUGGGACCCA [C30G A42U]	self-cleavage	0
GGCCGGCAUGGUCCCAGCCUCCUCGCUGGCGCCGGCUGGGCAACAUUCCGAGGGGACCUUCCCCUCGGUAAUGGCGAAUAGGACCCA [G59U G80A]	self-cleavage	0.295
GGCCGGGAUGGUCCCAGCCUCCUCGCUGGCGCCUGCUGGGCAACAUUCCGAGGGGACCGUCCCCUCGGUAAUGGCGAAUGGGACCCA [C7G G34U]	self-cleavage	0.0504
GGCCGGCAUGGUCCCAGCCUCCUCGCUGGCGCCGGCUGGGCAACAUUCCUAGGGGACCGUCCCCUCGGUAAUUGCGAAUGGGACCCA [G50U G73U]	self-cleavage	0.402
GGCCGGAAUGGUCCCAGCCUCCUCGCUGGCGCCGGCUGGGCAACAUUCCGAGGGGACCGUCCCCUCGGUAAUAGCGAAUGGGACCCA [C7A G73A]	self-cleavage	0.106
GGCCGGCAUGGUCCCAGCCUCCUCGCUGGCGCCGGCUGGGCAACAUUCCGAGGGGACCGUCCCCUCGAUAACGGCGAAUGGGACCCA [G68A U72C]	self-cleavage	0.594
GGCCGGCAUAGUCUCAGCCUCCUCGCUGGCGCCGGCUGGGCAACAUUCCGAGGGGACCGUCCCCUCGGUAAUGGCGAAUGGGACCCA [G10A C14U]	self-cleavage	0.59
GGCCGGCAUGGUCCCAGCCUCCUGGCUGGCGCCGGCUGGGCAACAUUCCGAGGGGACCGUCCCCUCGGUAAUGGGGAAUGGGACCCA [C24G C75G]	self-cleavage	0.13
GGCCGGCAUGUUCCCAGCCUCCUCGCUGGCGCCGGCUGAGCAACAUUCCGAGGGGACCGUCCCCUCGGUAAUGGCGAAUGGGACCCA [G11U G39A]	self-cleavage	0.128
GGCCGGCAUGGUCCCAGUCUCCUCGCUGGCGCCGACUGGGCAACAUUCCGAGGGGACCGUCCCCUCGGUAAUGGCGAAUGGGACCCA [C18U G35A]	self-cleavage	0.0906
GGCCGGCAUGGUACCAGCCUCCUCGCUCGCGCCGGCUGGGCAACAUUCCGAGGGGACCGUCCCCUCGGUAAUGGCGAAUGGGACCCA [C13A G28C]	self-cleavage	0.111

Numbers sourced from the RNAGym collection of RNA variant scans (doi:10.7554/elife.80360).
